Origin of measurements: ChEMBL document CHEMBL4118146

As shown below, each of these compounds has a reported Activity value.
assay_target: Potassium voltage-gated channel subfamily KQT member 2 (Homo sapiens, UniProt O43526)
Sequence (O43526 whole entry): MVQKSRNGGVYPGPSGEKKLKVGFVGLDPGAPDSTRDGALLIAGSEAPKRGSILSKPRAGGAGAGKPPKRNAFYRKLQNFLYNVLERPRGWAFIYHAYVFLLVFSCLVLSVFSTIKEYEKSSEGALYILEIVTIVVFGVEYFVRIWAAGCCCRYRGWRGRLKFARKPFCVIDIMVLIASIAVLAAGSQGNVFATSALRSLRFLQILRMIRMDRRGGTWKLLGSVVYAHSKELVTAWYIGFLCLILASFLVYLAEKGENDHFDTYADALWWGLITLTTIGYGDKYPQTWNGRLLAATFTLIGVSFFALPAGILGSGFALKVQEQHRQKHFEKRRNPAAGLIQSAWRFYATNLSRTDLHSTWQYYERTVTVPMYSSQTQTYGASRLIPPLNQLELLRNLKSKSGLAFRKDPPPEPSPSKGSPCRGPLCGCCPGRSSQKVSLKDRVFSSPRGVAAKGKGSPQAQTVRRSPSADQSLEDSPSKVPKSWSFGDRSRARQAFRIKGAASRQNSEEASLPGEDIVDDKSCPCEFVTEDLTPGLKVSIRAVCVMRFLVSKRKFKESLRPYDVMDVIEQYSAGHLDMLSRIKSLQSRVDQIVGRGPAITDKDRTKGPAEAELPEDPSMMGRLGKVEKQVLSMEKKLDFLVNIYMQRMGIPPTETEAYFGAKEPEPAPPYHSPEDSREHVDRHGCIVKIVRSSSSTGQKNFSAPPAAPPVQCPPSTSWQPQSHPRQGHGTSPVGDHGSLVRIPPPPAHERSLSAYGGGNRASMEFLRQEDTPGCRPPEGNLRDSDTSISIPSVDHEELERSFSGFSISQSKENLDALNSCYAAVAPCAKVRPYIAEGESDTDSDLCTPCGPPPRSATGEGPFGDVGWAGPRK
assay_procedure: Activation of KCNQ2 (unknown origin) expressed in CHO cells at 10 uM incubated for 20 mins in dark measured every 2 secs for 10 secs by fluorescence-based thallium influx assay relative to control
Type: cell-based
measured_quantity: Activity (%)

>>> observed_value("Cc1cc(N2CCC(c3ccc(Cl)cc3)CC2)cc(C)c1NC(=O)CC(C)(C)C")
88.3
>>> observed_value("Cc1cc(N2CCC(c3ccccc3)CC2)cc(C)c1NC(=O)CC(C)(C)C")
0.63
>>> observed_value("Cc1cc(N2CCC(c3ccncc3)CC2)cc(C)c1NC(=O)CC(C)(C)C")
29.7
>>> observed_value("Cc1cc(N2CCN(c3ccc(C(F)(F)F)cc3)CC2)cc(C)c1NC(=O)CC(C)(C)C")
88.3
>>> observed_value("Cc1cc(N2CCC(N3CCOCC3)CC2)cc(C)c1NC(=O)CC(C)(C)C")
1.13
>>> observed_value("CCOC(=O)Nc1ccc(NCc2ccc(F)cc2)cc1N [EZOGABINE]")
40.2
>>> observed_value("Cc1cc(CN2CCc3ccccc3C2)cc(C)c1NC(=O)CC(C)(C)C")
5.11
>>> observed_value("Cc1cc(C2CCCCN2)cc(C)c1NC(=O)CC(C)(C)C (stereo not drawn)")
0.83
>>> observed_value("Cc1cc(N2CCC(N3CCCCC3)CC2)cc(C)c1NC(=O)CC(C)(C)C")
0.02
>>> observed_value("Cc1cc(N2CCC(c3ccccc3C(F)(F)F)CC2)cc(C)c1NC(=O)CC(C)(C)C")
-47.2
>>> observed_value("Cc1cc(N2CCN(c3ccccn3)CC2)cc(C)c1NC(=O)CC(C)(C)C")
0.28
>>> observed_value("Cc1cc(N2CCC(c3ccc(C(F)(F)F)cc3)CC2)cc(C)c1NC(=O)CC(C)(C)C")
41.2
>>> observed_value("Cc1cc(N2CCC(=O)CC2)cc(C)c1NC(=O)CC(C)(C)C")
110
>>> observed_value("Cc1cc(N2CCC(c3ccccc3F)CC2)cc(C)c1NC(=O)CC(C)(C)C")
44
>>> observed_value("Cc1cc(N2CCC(c3cccc(C(F)(F)F)c3)CC2)cc(C)c1NC(=O)CC(C)(C)C")
149
>>> observed_value("Cc1cc(N2CCCCC2)cc(C)c1NC(=O)CC(C)(C)C")
69.8
>>> observed_value("Cc1cc(N2CCC(C)(C)CC2)cc(C)c1NC(=O)CC(C)(C)C")
100
>>> observed_value("Cc1cc(N2CCC(c3cccnc3)CC2)cc(C)c1NC(=O)CC(C)(C)C")
42.6
>>> observed_value("Cc1cc(CN2CCCCC2)cc(C)c1NC(=O)CC(C)(C)C")
10.3
>>> observed_value("Cc1cc(N2CCC(c3cccc(F)c3)CC2)cc(C)c1NC(=O)CC(C)(C)C")
152
>>> observed_value("Cc1cc(N2CCN(c3cccc(C(F)(F)F)c3)CC2)cc(C)c1NC(=O)CC(C)(C)C")
52.1
>>> observed_value("Cc1cc(CN2CCCc3ccccc32)cc(C)c1NC(=O)CC(C)(C)C")
139
>>> observed_value("Cc1cc(N2CCC(c3cccc(Cl)c3)CC2)cc(C)c1NC(=O)CC(C)(C)C")
168

----------
As shown below, each of these molecules has a reported log10 of EC50 value.
assay_target: Potassium voltage-gated channel subfamily KQT member 2 (Homo sapiens)
assay_procedure: Activation of KCNQ2 (unknown origin) expressed in CHO cells at 10 uM after 10 mins by atomic absorption spectrophotometry-based Rb+ flow assay
measured_quantity: log10 of EC50 (log10 of the value in nM)

>>> observed_value("Cc1cc(N2CCC(c3cccc(F)c3)CC2)cc(C)c1NC(=O)CC(C)(C)C")
2.34
>>> observed_value("Cc1cc(N2CCC(C)(C)CC2)cc(C)c1NC(=O)CC(C)(C)C")
3.20
>>> observed_value("Cc1cc(N2CCC(=O)CC2)cc(C)c1NC(=O)CC(C)(C)C")
2.11
>>> observed_value("Cc1cc(CN2CCCc3ccccc32)cc(C)c1NC(=O)CC(C)(C)C")
2.52
>>> observed_value("CCOC(=O)Nc1ccc(NCc2ccc(F)cc2)cc1N")
2.54

----------
assay_procedure: Tmax in Sprague-Dawley rat at 1 mg/kg, iv measured over 24 hrs by LC/MS/MS method
Type: ADME, organism-based
measurement_setup: in vivo
measured_quantity: Tmax (min)

>>> observed_value("Cc1cc(N2CCC(c3cccc(F)c3)CC2)cc(C)c1NC(=O)CC(C)(C)C")
1.8

----------
assay_target: Potassium voltage-gated channel subfamily KQT member 2 (Homo sapiens, UniProt O43526)
assay_procedure: Activation of KCNQ2 (unknown origin) expressed in CHO cells at 10 uM incubated for 20 mins in dark measured every 2 secs for 10 secs by fluorescence-based thallium influx assay relative to retigabine
Type: cell-based
measured_quantity: fold change (FC)

>>> observed_value("Cc1cc(N2CCC(c3cccc(Cl)c3)CC2)cc(C)c1NC(=O)CC(C)(C)C")
"3.7 to 42"
>>> observed_value("Cc1cc(N2CCC(c3cccc(C(F)(F)F)c3)CC2)cc(C)c1NC(=O)CC(C)(C)C")
"3.7 to 42"
>>> observed_value("Cc1cc(N2CCC(c3cccc(F)c3)CC2)cc(C)c1NC(=O)CC(C)(C)C")
"3.7 to 42"
>>> observed_value("Cc1cc(CN2CCCc3ccccc32)cc(C)c1NC(=O)CC(C)(C)C")
3.5

----------
assay_procedure: Clearance in Sprague-Dawley rat at 1 mg/kg, iv measured over 24 hrs by LC/MS/MS method
Format: ADME, organism-based
measurement_setup: in vivo
measured_quantity: clearance (mL/min/kg)

>>> observed_value("Cc1cc(N2CCC(c3cccc(F)c3)CC2)cc(C)c1NC(=O)CC(C)(C)C")
2

----------
assay_procedure: Cmax in Sprague-Dawley rat at 1 mg/kg, iv measured over 24 hrs by LC/MS/MS method
Assay type: ADME, organism-based
Parameters: dose 1 mg/kg, route intravenous
measurement_setup: in vivo
measured_quantity: Cmax (ng/mL)

>>> observed_value("Cc1cc(N2CCC(c3cccc(F)c3)CC2)cc(C)c1NC(=O)CC(C)(C)C")
9110

----------
assay_procedure: Half life in Sprague-Dawley rat at 1 mg/kg, iv measured over 24 hrs by LC/MS/MS method
Format: ADME, organism-based
measurement_setup: in vivo
measured_quantity: half-life (h)

>>> observed_value("Cc1cc(N2CCC(c3cccc(F)c3)CC2)cc(C)c1NC(=O)CC(C)(C)C")
1.38

----------
As shown below, each of these molecules has a reported Efficacy value.
assay_target: Potassium voltage-gated channel subfamily KQT member 2 (Homo sapiens, UniProt O43526)
assay_procedure: Activation of KCNQ2 (unknown origin) expressed in CHO cells at 10 uM after 10 mins by atomic absorption spectrophotometry-based Rb+ flow assay
Type: cell-based
measured_quantity: Efficacy (%)

>>> observed_value("Cc1cc(N2CCC(=O)CC2)cc(C)c1NC(=O)CC(C)(C)C")
148
>>> observed_value("Cc1cc(CN2CCCc3ccccc32)cc(C)c1NC(=O)CC(C)(C)C")
160
>>> observed_value("Cc1cc(N2CCC(C)(C)CC2)cc(C)c1NC(=O)CC(C)(C)C")
210
>>> observed_value("Cc1cc(N2CCC(c3cccc(F)c3)CC2)cc(C)c1NC(=O)CC(C)(C)C")
180
>>> observed_value("CCOC(=O)Nc1ccc(NCc2ccc(F)cc2)cc1N [EZOGABINE]")
210
